assay: Solubility of Compound 1 in water; format: physicochemical
MEASURE_NAME: solubility

May I ask what solubility has been recorded for C/C(=N\NC(=O)c1cccc(C)c1)c1ccc2ccccc2c1 [Compound 1] ?
< 5 µM

====

test: Chemical stability as a function of pH in PBS (Example 6); type: physicochemical; details: mildly acidic conditions (PBS pH 4.5), 37° C.; read-out: apparent half-life
MEASURE_NAME: half-life at 5 μM

Dear colleague, I am looking for the recorded half-life at 5 μM of the following molecule: `C/C(=N\NC(=O)c1cccc(C)c1)c1ccc2ccccc2c1`
> 120 min
